# assay overview: qHTS of pediatric cancer cell lines to identify multiple opportunities for drug repurposing: Primary screen for OHS-50 cells (AID 1347103); further: nearly all actives have a fitted effect of over 40% in size
# stated conditions: OHS-50 osteosarcoma viability, CellTiter-Glo luminescence, 48 h; series mostly up to 57.3 µM
Inconclusive results are not listed. Calls of active or inactive are those of the source. The call rests on the fitted dose curve; in most records, active means well fitted cell-killing curve with a large enough effect; inconclusive means small, poorly fitted or top-dose-only effect; inactive means no such curve, though single readings can be large or run the other way.
Result category, one only: active, inactive

Example results:
C[C@H]1C[C@H]2[C@@H]3CCC4=CC(=O)C=C[C@]4(C)[C@@]3(Cl)[C@@H](O)C[C@]2(C)[C@@]1(O)C(=O)CO	active
CN1[C@@H]2CC[C@H]1CC(OC(=O)c1c[nH]c3ccccc13)C2 (some centres not stated)	inactive

Q. Could you please tell me the result logged for CCN1CCC[C@H]1CNC(=O)c1c(OC)ccc(Br)c1OC in this assay?
A. inactive

Q. Try this molecule next: C[n+]1c2cc(N)ccc2cc2ccc(N)cc21 (tested in a mixture with another compound)
A. active

Q. Try this molecule next: CN=C(NC#N)Nc1ccc(C2=NNC(=O)CC2C)cc1 (configuration not stated)
A. inactive

Q. Try this molecule next: OCc1ccccc1O
A. inactive

Q. Try this molecule next: C[C@]12C=CC(=O)C=C1CC[C@@H]1[C@@H]2[C@@H](O)C[C@@]2(C)[C@H]1CC[C@]2(O)C(=O)CO
A. inactive

Q. Try this molecule next: Nc1ccc(C(=O)O)cc1
A. inactive

Q. Try this molecule next: CCCN1CCCC[C@H]1C(=O)Nc1c(C)cccc1C
A. inactive

Q. Try this molecule next: CCOC(=O)c1cccc(N)c1
A. inactive

Q. Try this molecule next: C[C@@H]1C[C@H]2[C@@H]3C[C@H](F)C4=CC(=O)C(Cl)=C[C@]4(C)[C@@]3(F)[C@@H](O)C[C@]2(C)[C@@]1(O)C(=O)CO
A. inactive

Q. Try this molecule next: Cc1c(C)n(CCN(C)C)c2ccc(C(=O)OCCN(C)C)cc12
A. inactive

Q. Try this molecule next: COC(=O)CCc1ccc(OCC(O)CNC(C)C)cc1 (configuration not stated)
A. inactive

Q. Try this molecule next: COc1cccc(OC)c1C(=O)N[C@@H]1C(=O)N2[C@@H]1SC(C)(C)[C@@H]2C(=O)O
A. inactive

Q. Try this molecule next: CCCCCCCCCCCCCCCC[N+](C)(C)CCN(Cc1ccc(OC)cc1)c1ncccn1
A. active

Q. Try this molecule next: CC(O)(P(=O)(O)O)P(=O)(O)O
A. inactive

Q. Try this molecule next: COC(=O)[C@@H]1CC2=CC(=O)CC[C@]2(C)[C@@]23O[C@@H]2C[C@@]2(C)[C@@H](CC[C@@]24CCC(=O)O4)[C@H]13
A. inactive

Q. Try this molecule next: NCCCC[C@H](N[C@@H](CCc1ccccc1)C(=O)O)C(=O)N1CCC[C@H]1C(=O)O
A. inactive

Q. Try this molecule next: C[C@H]1[C@H](NC(=O)/C(=N/OC(C)(C)C(=O)O)c2csc(N)n2)C(=O)N1S(=O)(=O)O (stereo in doubt)
A. inactive

====

# measurement target: Cytochrome P450 2C9 (Homo sapiens)
# assay overview: Cytochrome P450 family 2 subfamily C member 9 (CYP2C9) small molecule antagonists: luciferase biochemical (cell-free) qHTS assay (AID 1645842); further: nearly all actives have a fitted effect of over 55% in size
# stated conditions: P450-Glo CYP2C9 enzyme assay, luciferin luminescence; series mostly up to 57.4 µM
Inconclusive results are not listed. Activity calls are given as the source filed them. Calls follow the shape of the dose curve; as a rule, active = well fitted inhibition curve with a large enough effect in the repeat runs; inconclusive = weak or mixed curves; inactive = no such curve, though single readings can be large or run the other way.
Result category, one only: active, inactive

CCCC(=O)O[C@]1(C(=O)CO)CC[C@H]2[C@@H]3CCC4=CC(=O)CC[C@]4(C)[C@H]3[C@@H](O)C[C@@]21C	inactive
CN(C)CC/C=C1\c2ccccc2Sc2ccc(Cl)cc21	inactive
OCc1ccccc1O	inactive

Q. Could you please tell me the result logged for CNCCC=C1c2ccccc2CCc2ccccc21 in this assay?
A. inactive

Q. Try this compound next: CCCCC1=NC2(CCCC2)C(=O)N1Cc1ccc(-c2ccccc2-c2nn[nH]n2)cc1
A. active

Q. Try this compound next: NC(=O)c1cc[n+](CC2=C(C(=O)[O-])N3C(=O)[C@@H](NC(=O)Cc4cccs4)[C@H]3SC2)cc1
A. inactive

Q. Try this compound next: COc1cccc(OC)c1C(=O)N[C@@H]1C(=O)N2[C@@H]1SC(C)(C)[C@@H]2C(=O)O
A. inactive

Q. Try this compound next: C[C@H](O)C(=O)Nc1c(I)c(C(=O)NC(CO)CO)c(I)c(C(=O)NC(CO)CO)c1I
A. inactive

====

# System: DIV14
# assay overview: qHTS profiling for inhibitors of Plasmodium falciparum proliferation (AID 504749); further: nearly all actives have a fitted effect of over 60% in size
# stated conditions: P. falciparum in erythrocytes, SYBR Green DNA, 72 h; series mostly up to 28.7 µM
Records with an inconclusive call do not appear. Activity calls are given as the source filed them. The call rests on the fitted dose curve; in most records, active means well fitted inhibition curve with a large enough effect; inconclusive means small, poorly fitted or top-dose-only effect; inactive means flat fitted curve, though single readings scatter.
Result category, one only: active, inactive

CC(C)(C)CC(C)(C)c1ccc(OCCOCC[N+](C)(C)Cc2ccccc2)cc1	active
Nc1ccc(C(=O)Nc2ccccc2N)cc1	inactive
COCc1c(C(C)C)nc(C(C)C)c(/C=C/[C@@H](O)C[C@@H](O)CC(=O)O)c1-c1ccc(F)cc1	inactive
Cc1cc(O)c(C(C)C)cc1Cl	inactive
Cc1cc(=O)n(-c2ccccc2)n1C	inactive
CC(=O)N(O)CCCCCNC(=O)CCC(=O)N(O)CCCCCNC(=O)CCC(=O)N(O)CCCCCN	inactive

Next item in the queue.
Q. Could you please tell me the result logged for CCN(CC)CCOC(=O)C(c1ccccc1)C1CCCCC1 (configuration not stated) in this assay?
A. active

====

# Test system: TAB113
# assay overview: qHTS profiling for inhibitors of Plasmodium falciparum proliferation (AID 504749); further: nearly all actives have a fitted effect of over 60% in size
# stated conditions: P. falciparum in erythrocytes, SYBR Green DNA, 72 h; series mostly up to 28.7 µM
Results filed as inconclusive are left out. Active and inactive are the calls of the source. Calls follow the shape of the dose curve; as a rule, active = well fitted inhibition curve with a large enough effect; inconclusive = small, poorly fitted or top-dose-only effect; inactive = flat fitted curve, though single readings scatter.
Result category, one only: True = active, False = inactive

Example results:
COc1ccc(CN2CCN(C(c3ccc(F)cc3)c3ccc(F)cc3)CC2)c(OC)c1OC	True
O=C(Nc1ccc(Oc2ccc(Cl)cc2)c(Cl)c1)c1cc(I)cc(I)c1O	False
CCCCCCCCCCCCCCCCOP(=O)([O-])OCC[N+](C)(C)C	False
CC(=O)N(O)CCCCCNC(=O)CCC(=O)N(O)CCCCCNC(=O)CCC(=O)N(O)CCCCCN	False
Cc1cc(O)c(C(C)C)cc1Cl	False

Q. Could you please tell me the result logged for CCCCCCC[N+](CC)(CC)CCCCc1ccc(Cl)cc1 in this assay?
A. True

Q. Try this compound next: Oc1c(Cl)cc(Cl)cc1Sc1cc(Cl)cc(Cl)c1O
A. False

====

# assay overview: qHTS of pediatric cancer cell lines to identify multiple opportunities for drug repurposing: Primary screen for TC32 cells (AID 1347089); further: nearly all actives have a fitted effect of over 60% in size
# stated conditions: TC32 Ewing sarcoma viability, CellTiter-Glo luminescence, 48 h; series mostly up to 45.8 µM
Inconclusive results are not listed. Activity calls are given as the source filed them. Calls come from the whole dose curve; as a rule, active = well fitted cell-killing curve with a large enough effect; inconclusive = small, poorly fitted or top-dose-only effect; inactive = flat fitted curve, though single readings scatter.
Result category, one only: class 1 for active, class 0 for inactive

Q. Could you please tell me the result logged for Nc1ccc(C(=O)O)cc1 in this assay?
A. class 0

Q. Try this compound next: C[n+]1c2cc(N)ccc2cc2ccc(N)cc21 (tested in a mixture with another compound)
A. class 1

====

# System: CP191
# assay overview: qHTS profiling for inhibitors of Plasmodium falciparum proliferation (AID 504749); further: nearly all actives have a fitted effect of over 60% in size
# stated conditions: P. falciparum in erythrocytes, SYBR Green DNA, 72 h; series mostly up to 28.7 µM
Records with an inconclusive call do not appear. Calls of active or inactive are those of the source. Calls follow the shape of the dose curve; as a rule, active = well fitted inhibition curve with a large enough effect; inconclusive = small, poorly fitted or top-dose-only effect; inactive = flat fitted curve, though single readings scatter.
Result category, one only: YES (active), NO (inactive)

Example results:
O=C(O)CCCCC(=O)O	NO
COc1ccc(/C=C/C(=O)c2ccc(OC)cc2OC)cc1	YES
NC(=O)C(=O)N/N=C/c1ccc([N+](=O)[O-])o1	NO
Cc1cc(N)c2cc(NC(=O)Nc3ccc4nc(C)cc(N)c4c3)ccc2n1	YES
CCCN1CCCC[C@H]1C(=O)Nc1c(C)cccc1C	NO

Q. Could you please tell me the result logged for C[C@]12CCC(=O)C=C1CC[C@H]1[C@@H]3CC[C@](O)(C(=O)CO)[C@@]3(C)C[C@H](O)[C@@]12F in this assay?
A. NO

Q. Try this compound next: O=C(CCN1CCC(c2ccccc2)C1)c1ccc2c(c1)OCCO2 (configuration not stated)
A. NO

Q. Try this compound next: O=C1OC(c2ccc(O)cc2)(c2ccc(O)cc2)c2ccccc21
A. NO

Q. Try this compound next: O=c1ccc2ccccc2o1
A. NO

Q. Try this compound next: CC(O)C(=O)O (configuration not stated)
A. NO

Q. Try this compound next: CC(C)(CO)[C@@H](O)C(=O)NCCCO
A. NO

Q. Try this compound next: NCCC(O)(P(=O)(O)O)P(=O)(O)O
A. NO

Q. Try this compound next: C#C[C@]1(OC(C)=O)CC[C@H]2[C@@H]3CCC4=C[C@@H](OC(C)=O)CC[C@@H]4[C@H]3CC[C@@]21C
A. NO

Q. Try this compound next: CCCCCC=CCC=CCCCCCCCC(=O)OCC
A. NO

Q. Try this compound next: CCC(=O)c1c(O)cc(O)cc1O
A. NO

Q. Try this compound next: CNCCC(Oc1ccccc1C)c1ccccc1 (configuration not stated)
A. NO

Q. Try this compound next: C1CCc2nnnn2CC1
A. NO

Q. Try this compound next: CCCCCCCCCCCCCCCC[N+](C)(C)CC
A. YES

Q. Try this compound next: C[C@H]1C[C@H]2[C@@H]3CCC4=CC(=O)C=C[C@]4(C)[C@@]3(Cl)[C@@H](O)C[C@]2(C)[C@@]1(O)C(=O)CO
A. NO

Q. Try this compound next: CN1C2CCC1CC(OC(=O)c1c[nH]c3ccccc13)C2 (configuration not stated)
A. NO

Q. Try this compound next: CN(C)/N=N/c1nc[nH]c1C(N)=O
A. NO

Attribution: PubChem BioAssay (NCATS)
